tested on: Phaseolus vulgaris; assay: Phytotoxicity against Phaseolus vulgaris assessed as area of lesions at 1 mg/ml at 20 degC for 4 days; format: organism-based; details: in vivo, 96 h

- COMPOUND: "CCC[C@H]1OC(=O)[C@@H](O)CC/C=C/[C@@H](O)[C@@H]1O (relative stereo) [Pinolide]"
  Activity: "Non-toxic"
- COMPOUND: "C/C=C/C=C/C(=O)O[C@H]1CC/C=C/[C@H](O)[C@H](O)[C@@H](CCC)OC1=O [PINOLIDOXIN]"
  Activity: "34 mm2"
- COMPOUND: "CCC[C@H]1OC(=O)[C@@H](O)CC/C=C/[C@H](O)[C@@H]1O"
  Activity: "Non-toxic"
- COMPOUND: "CCC[C@H]1OC(=O)[C@H](O)CC/C=C/[C@H](O)[C@@H]1O [HERBARUMIN II]"
  Activity: "Non-toxic"
